This collection of values is drawn from patent US20250136720A1.

target: T1, Human CD137 on Jurkat cells (human, UniProt Q07011 24-255); test: flow cytometry, Jurkat cells;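 further: binding of antibody-containing supernatants to NF-kB-Luc2/4-1BB Jurkat cells, detected by flow cytometry with a PE-labelled anti-human IgG-Fc secondary antibody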
T1 construct: whole, on cells; also called full-length human CD137-expressing Jurkat cell line; NF-kB-Luc2/4-1BB Jurkat

{"binder": "CD137 #A46 (antibody, human IgG1, V domains shown, human IgG1 KO (L234A/L235A)/kappa chimeric IgG) VH: QVQLAQSGAEVKKPGASVKVSCKASGYTFSSFPMHWVRQAPGQRLEWMGWSNAGIGNTKYSQEFQGRVTITRDTSASTAYMELSSLRSEDMAVYYCAREGLTGAFDYWGQGTLVTVSS VL: DIVMTQSPLSLPVTPGEPASISCRSSQSLLHSNGYNYLGWHLQKPGQSPQLLIYLGSYRASGVPDRFSGSGSGTDFTLKISRVEAEDVGVYYCMQPLQIPLTFGGGTKVEIK", "binding result": "binds"}
{"binder": "CD137 #A2 (antibody, human IgG1, V domains shown, human IgG1 KO (L234A/L235A)/kappa chimeric IgG) VH: QVQLVQSGADVKKPGASVRVSCKASGYTFTSYPIHWVRQAPGHRLEWMGWSNAGIGNAKYSQEFQGRVTITRDTSASTAYMDLSSLTSEDLAVYYCAREGVAGAFDIWGQGTMVTVSA VL: DIVMTQSPLSLPVTPGEPASISCRSSQNLLHSNGYNYLDWYLHKPGQSPQLLIYLGSIRASGVPDRFSGSESGTDFTLKISRVEAEDVGIYYCMQPLQIPYTFGQGTKLELK", "binding result": "binds"}
{"binder": "CD137 #B31 (antibody, human IgG1, V domains shown, human IgG1 KO (L234A/L235A)/kappa chimeric IgG) VH: QVQLQQSGPQLIRPGASVKISCKASGYSFTGYWIHWVKQRPGQGLEWIGMIDPSDSETRLNQKFKDKATLTVDKSSTTAYMQLSSPTSEDSAVFYCARYRNYGYDGFAHWGQGTLVTVSA VL: DIVMTQSPSSLTVTAGEKVTMSCKSSQSLLNSGNEKNYLAWYQQKPGQPPKLLIYWASTRESGVPDRFTGSGSGTDFTLTISSVQTEDLAVYHCQNDYSLPLTFGAGTKLELK", "binding result": "binds"}
